Experiment: self-splicing fitness, log relative to wild type (ln ratio); higher = more splicing; Tetrahymena group I intron in knt gene, E. coli kanamycin selection, DiMSum; sequences stand for … in CUCUCU…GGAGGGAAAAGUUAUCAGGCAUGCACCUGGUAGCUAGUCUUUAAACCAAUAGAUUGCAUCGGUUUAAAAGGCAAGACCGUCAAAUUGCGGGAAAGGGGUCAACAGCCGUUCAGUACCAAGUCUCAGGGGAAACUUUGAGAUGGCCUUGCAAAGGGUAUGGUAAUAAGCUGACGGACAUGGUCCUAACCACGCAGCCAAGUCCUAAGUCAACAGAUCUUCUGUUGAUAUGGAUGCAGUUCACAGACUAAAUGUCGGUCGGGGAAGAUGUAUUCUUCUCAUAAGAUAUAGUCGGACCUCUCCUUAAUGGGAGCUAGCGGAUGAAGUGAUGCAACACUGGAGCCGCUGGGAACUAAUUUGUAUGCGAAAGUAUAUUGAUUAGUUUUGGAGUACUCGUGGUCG;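 also: selection with 25 µg/mL kanamycin versus none on LB agar overnight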
Conditions: 37 °C
QUANTITY KIND: self-splicing fitness (ln)
Give bare numbers.

Solved cases (3 shown):
> print(dat)
         sequence.entry  result
1  UCUGAGCAAUAUUACGAGCG   -2.37
2  GCAAAGCAAUAUUACGGUUC  -0.948
3  GUUCAGCAAUAUUACGGGGG    -1.4

Lab note: each sequence below needs its self-splicing fitness (ln) filled in.
1. GGCCAGCAAUAUUACGACGC
2. AUUUAGCAAUAUUACGAGGG
3. CACGAGCAAUAUUACGAUGA
4. CGAGAGCAAUAUUACGCGUA

1: 0.369; 2: -1.34; 3: -2.17; 4: -2.67

The values you see were collected from the supplement of paper PMC7877785.
